Test system: human PBMCs
Test method notes: Human PBMC cytokine response assay (IFN-γ and IFN-α in cell-free medium by ELISA), with or without cPLGA
Type: cell-based
Condition context: donor 119; Table 14
Strand notation (5' to 3'): a small letter for the sugar, then the base; units joined by * are phosphorothioate-linked, units joined directly phosphodiester-linked; [ ] holds rarer units or linkages, { } end groups; capitals alone tell only the bases. d = 2'-deoxy (DNA)
Please map values of IFN-α to classes as shown: zone 1 (below 200 pg/mL), zone 2 (200 pg/mL to below 500 pg/mL), zone 3 (500 pg/mL or more)

# Substance, Group label
data = [
    ("5′-TCGAACG-3′-HEG-5′-TCGAACG-3′-HEG-5′-TCGAACG-3′ [Compound C-50]", "zone 3"),
    ("5′-AGATGAT-3′-HEG-5′-TCGTCGA-3′-HEG-5′-ACGTTCG-3′ [Compound C-59]", "zone 1"),
    ("(5′-TCGTCGA-3′)2-glycerol-5′-TCGTCGA-3′ [Compound C-28]", "zone 1"),
    ("5′-TTCGTTT-3′-HEG-5′-TTCGTTT-3′-HEG-5′-TTCGTTT-3′ [Compound C-46]", "zone 2"),
    ("5′-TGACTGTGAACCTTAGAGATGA-3′ (SEQ ID NO: 3) (dT*dG*dA*dC*dT*dG*dT*dG*dA*dA*dC*dC*dT*dT*dA*dG*dA*dG*dA*dT*dG*dA) [Compound P-7, negative control, reference compound]", "zone 2"),
    ("5′-TCGACGT-3′-HEG-5′-TCGACGT-3′-HEG-5′-TCGACGT-3′ [Compound C-51]", "zone 3"),
    ("5′-TCGTCGT-3′-HEG-5′-TCGTCGT-3′-HEG-5′-TCGTCGT-3′ [Compound C-42]", "zone 1"),
    ("(5′-TCGTCGA-3′-HEG)2-glycerol-HEG-5′-TCGTCGA-3′ [Compound C-94]", "zone 3"),
    ("5′-TCGTCGA-3′-HEG-5′-ACGTTCG-3′-HEG-5′-AGATGAT-3′ [Compound C-8]", "zone 2"),
    ("5′-TCGACTC-3′-HEG-5′-TCGAGCG-3′-HEG-5′-TTCTCTT-3′ [Compound C-63]", "zone 2"),
    ("5′-CGTTCGA-3′-HEG-5′-CGTTCGA-3′-HEG-5′-CGTTCGA-3′ [Compound C-52]", "zone 2"),
    ("5′-TCGTCG-3′-HEG-5′-TCGA-3′ [Compound C-40]", "zone 1"),
    ("5′-TCGTCGA-3′-HEG-5′-TCGTCGA-3′ [Compound C-39]", "zone 2"),
    ("TMEA-(5′-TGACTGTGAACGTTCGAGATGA-3′)3 (SEQ ID NO: 139) (See Ex. 23) [Compound C-99]", "zone 1"),
    ("5′-TCGAGAT-3′-HEG-5′-TCGAGAT-3′-HEG-5′-TCGAGAT-3′ [Compound C-45]", "zone 3"),
    ("5′-TCGTTTT-3′-HEG-5′-TCGTTTT-3′-HEG-5′-TCGTTTT-3′ [Compound C-41]", "zone 1"),
]

---

Documented IFN-α across a set of substances
Test system: human PBMCs
Test method notes: Human PBMC cytokine response assay (IFN-γ and IFN-α in cell-free medium by ELISA), with or without cPLGA
Type: cell-based
Condition context: Example 59; 4 ug/ml; donor 273
Strand notation (5' to 3'): a small letter for the sugar, then the base; units joined by * are phosphorothioate-linked, units joined directly phosphodiester-linked; [ ] holds rarer units or linkages, { } end groups; capitals alone tell only the bases. d = 2'-deoxy (DNA)

# Substance, Assayed target, Measure unit, IFN-α
rows = [
    ("(5′-TCGACGT-HEG)2-glycerol-HEG-5′-CCTACTGAACCTCTAAGT-3′ (SEQ ID NO: 158) (DNA, all phosphorothioate, methylation of C not given here; Two heptamer DNA arms joined by HEG spacers and glycerol branching to the chain) [Compound C-203]", "human PBMCs", "pg/mL", 102),
    ("5′-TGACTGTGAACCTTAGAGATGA-3′ (SEQ ID NO: 3) (dT*dG*dA*dC*dT*dG*dT*dG*dA*dA*dC*dC*dT*dT*dA*dG*dA*dG*dA*dT*dG*dA) [Compound P-7, negative control, reference compound]", "human PBMCs", "pg/mL", 102),
    ("(5′-TAGTCAT-3′-HEG)2-glycerol-HEG-5′-AACCTTC-3′ [Compound M-3, reference compound]", "human PBMCs", "pg/mL", 102),
    ("(5′-TCGACGT-HEG)2-glycerol-HEG-5′-ACTTAGAGGTTCAGTAGG-3′ (SEQ ID NO: 157) (DNA, all phosphorothioate, methylation of C not given here; Two heptamer DNA arms joined by HEG spacers and glycerol branching to the chain) [Compound C-202]", "human PBMCs", "pg/mL", 215),
    ("(5′-TCGACGT-HEG)2-glycerol-HEG-5′-TTGGCCAAGCTTGGCCAA (SEQ ID NO: 116) (DNA, all phosphorothioate, methylation of C not given here; Two heptamer DNA arms joined by HEG spacers and glycerol branching to the chain) [Compound C-178]", "human PBMCs", "pg/mL", 1732),
    ("(5′-TCGACGT-3′-HEG)2-glycerol-HEG-5′-TCGACGT-3′ [Compound C-101]", "human PBMCs", "pg/mL", 102),
]
